Target: UniProt:P02768
Sequence (P02768 whole entry): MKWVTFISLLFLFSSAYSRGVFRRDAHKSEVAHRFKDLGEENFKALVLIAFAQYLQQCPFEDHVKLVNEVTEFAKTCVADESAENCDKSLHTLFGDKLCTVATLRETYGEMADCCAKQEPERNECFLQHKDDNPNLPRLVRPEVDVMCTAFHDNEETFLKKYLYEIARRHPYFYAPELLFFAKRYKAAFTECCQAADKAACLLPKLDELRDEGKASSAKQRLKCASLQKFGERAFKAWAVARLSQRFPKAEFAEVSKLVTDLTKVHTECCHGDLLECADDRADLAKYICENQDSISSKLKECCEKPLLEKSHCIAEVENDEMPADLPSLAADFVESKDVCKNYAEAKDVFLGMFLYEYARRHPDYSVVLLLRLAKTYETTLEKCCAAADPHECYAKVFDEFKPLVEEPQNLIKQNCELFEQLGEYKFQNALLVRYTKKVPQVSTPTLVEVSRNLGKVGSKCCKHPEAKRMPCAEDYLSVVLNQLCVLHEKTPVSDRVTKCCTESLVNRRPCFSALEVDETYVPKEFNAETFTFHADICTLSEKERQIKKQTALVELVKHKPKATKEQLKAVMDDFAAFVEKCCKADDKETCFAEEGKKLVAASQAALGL
Experiment: Protein binding to human serum albumin
Type: ADME, cell-free
Details: read-out: PB (converted)
The entries below come with measured fraction unbound values attached.

Example entries begin here.
[[record]]
record_smiles = "CN[C@H](CC(C)C)C(=O)N[C@H]1C(=O)N[C@@H](CC(N)=O)C(=O)N[C@H]2C(=O)N[C@H]3C(=O)N[C@H](C(=O)N[C@H](C(=O)O)c4cc(O)cc(O)c4-c4cc3ccc4O)[C@H](O[C@H]3C[C@](C)(N)[C@@H](O)[C@H](C)O3)c3ccc(c(Cl)c3)Oc3cc2cc(c3O[C@@H]2O[C@H](CO)[C@@H](O)[C@H](O)[C@H]2O[C@H]2C[C@](C)(NCc3ccc(-c4ccc(Cl)cc4)cc3)[C@@H](O)[C@H](C)O2)Oc2ccc(cc2Cl)[C@H]1O"
measure_name = "fraction unbound"
result = 0.1

[[record]]
record_smiles = "CCCCCCCCCCNCCN[C@@]1(C)C[C@H](O[C@H]2[C@H](Oc3c4cc5cc3Oc3ccc(cc3Cl)[C@@H](O)[C@@H](NC(=O)[C@@H](CC(C)C)NC)C(=O)N[C@@H](CC(N)=O)C(=O)N[C@H]5C(=O)N[C@H]3C(=O)N[C@H](C(=O)N[C@H](C(=O)O)c5cc(O)c(CNCP(=O)(O)O)c(O)c5-c5cc3ccc5O)[C@H](O)c3ccc(c(Cl)c3)O4)O[C@H](CO)[C@@H](O)[C@@H]2O)O[C@@H](C)[C@H]1O"
measure_name = "fraction unbound"
result = 0.07


Turning to the following compound.
[Q] May I ask what fraction unbound has been recorded for CN[C@H](CC(C)C)C(=O)N[C@H]1C(=O)N[C@@H](CC(N)=O)C(=O)N[C@H]2C(=O)N[C@H]3C(=O)N[C@H](C(=O)N[C@H](C(=O)O)c4cc(O)cc(O)c4-c4cc3ccc4O)[C@H](O)c3ccc(c(Cl)c3)Oc3cc2cc(c3O[C@@H]2O[C@H](CO)[C@@H](O)[C@H](O)[C@H]2O[C@H]2C[C@](C)(N)[C@H](O)[C@H](C)O2)Oc2ccc(cc2Cl)[C@H]1O ?
[A] 0.9
